- target_system: human SOS1 (nucleotide exchange of K-Ras^G12C) (Homo sapiens, UniProt Q07889)
- test_name: Biochemical assay 2: K-Ras^G12C activation assay by hSOS1 at high GTP concentration (HTRF)
- condition_label: high GTP; read-out: Assay 2 (KRAS-Activation by SOS high GTP) activity expressed as IC50
pIC50: −log10 of the molar value.
Quick rule for you: pIC50 at 6 or higher means 1 (yes), lower means 0 (no).

COc1ccc2oc(-c3cccc([C@@H](C)Nc4nc(C)nc5cc(OC)c(OC)cc45)c3)cc2c1: 0 (no)
CCCOc1ccccc1-c1cccc([C@@H](C)Nc2nc(C)nc3cc(OC)c(OC)cc23)c1: 0 (no)
COc1cc2nc(C)nc(NC(C)c3ccc(-c4cnn(CCN5CCCC5)c4)s3)c2cc1OC (centres unmarked): 1 (yes)
COc1cc2nc(C)nc(NC(C)c3cccc4c3CCO4)c2cc1OC (centres unmarked): 1 (yes)
COc1cc2nc(C)nc(NC(C)c3ccc(-c4cnn(C5CCCC5)c4)s3)c2cc1OC (centres unmarked): 0 (no)
COc1cc2nc(C)nc(N[C@H](C)c3cccc(C)c3)c2cc1OC: 1 (yes)

Ref: patent US20240083857A1
